- target_under_test: Sphingosine 1-phosphate receptor 2 (Homo sapiens)
- Sequence (O95136 whole entry): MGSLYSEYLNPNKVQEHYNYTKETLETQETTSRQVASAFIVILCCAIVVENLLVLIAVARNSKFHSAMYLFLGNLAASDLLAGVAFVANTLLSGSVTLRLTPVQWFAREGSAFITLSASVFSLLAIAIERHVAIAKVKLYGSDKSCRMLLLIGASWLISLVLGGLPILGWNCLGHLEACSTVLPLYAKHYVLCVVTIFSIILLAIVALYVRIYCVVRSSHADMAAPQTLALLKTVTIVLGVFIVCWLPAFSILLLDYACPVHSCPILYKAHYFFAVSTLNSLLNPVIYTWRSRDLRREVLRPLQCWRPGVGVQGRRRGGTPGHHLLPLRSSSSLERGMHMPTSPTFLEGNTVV
- test_method_notes: Binding affinity to human sphingosine 1-phosphate receptor 2 expressed in CHO cells was determined by using [33P]-S1P as radioligand
pIC50: −log10 of the molar value.
Catalogue of compounds with associated pIC50

compound: CCCCCCCCCc1ccc(CNCCC(O)C(=O)O)cc1 (stereo unspecified)
target_under_test: Sphingosine 1-phosphate receptor 2 (Homo sapiens)
pIC50: < 5.00
--
compound: CCCCCCCCc1ccc(CCC(N)CCP(=O)(O)O)cc1 (stereo unspecified)
target_under_test: Sphingosine 1-phosphate receptor 2 (Homo sapiens)
pIC50: < 5.00
--
compound: CCCCCCCCCCCCCCC(N)CCP(=O)(O)O (stereo unspecified)
target_under_test: Sphingosine 1-phosphate receptor 2 (Homo sapiens)
pIC50: 5.92

Shifting focus to the compound that follows.
Incoming: Sphingosine 1-phosphate receptor 2 (Homo sapiens) / pIC50 / NC(CCCCCCCCCCc1ccccc1)CCP(=O)(O)O (stereo unspecified) : value?
Outgoing: 5.68
